For each record, write down the corresponding inhibition.
# Experiment summary: growth inhibition, single agents and combos, UWB1.289, cell-based, BGB or cisplatin combos, synergistic combos for chromothripsis tumors (AID 1671456);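 note: cells exposed to compound for four days; 0% = vehicle DMSO and 100% = killing by high DMSO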
# Measurement conditions: UWB1.289 ovarian carcinoma cells, measured here: inhibition with cisplatin combination, at 0.05 µM, stronger effect = higher value
# unit: % | format: bare number

Query: inhibition; subject: CCC(C)C(=O)OC1CC(C)C=C2C=CC(C)C(CCC3CC(O)CC(=O)O3)C21 (centres undefined)
5.33

Query: inhibition; subject: `Cc1cc(C)cc(C(=O)NOCCCCCC(=O)NO)c1`
-8.14

Query: inhibition; subject: `CN(C)C(=S)NN=C(c1ccccn1)c1ccccn1`
92.1

Query: inhibition; subject: `CC(C)(C#N)c1ccc(N2C(=O)OCc3cnc4ccc(-c5cnc6ccccc6c5)cc4c32)cc1`
-6.61

Query: inhibition; subject: `O=C1N=c2ccccc2=C1c1c(O)[nH]c2ccccc12`
-14.6

Query: inhibition; subject: CC(Oc1cc(-c2cnn(C3CCNCC3)c2)cnc1N)c1c(Cl)ccc(F)c1Cl (centres undefined)
12.8

Query: inhibition; subject: `O=C1C(=Cc2cccnc2)C(=O)c2ccccc21`
-5.97

Query: inhibition; subject: `Cc1cc(C)c(Nc2ccnc(Nc3ccc(C#N)cc3)n2)c(C)c1`
-7.91

Query: inhibition; subject: C=C(NC(=O)C(=C)NC(=O)c1csc(C2=NC3c4csc(n4)C4NC(=O)c5csc(n5)C(C(C)(O)C(C)O)NC(=O)C5CSC(=N5)/C(=C/C)NC(=O)C(C(C)O)NC(=O)c5csc(n5)C3(CC2)NC(=O)C(C)NC(=O)C(=C)NC(=O)C(C)NC(=O)C(C(C)CC)NC2C=Cc3c(C(C)O)cc(nc3C2O)C(=O)OC4C)n1)C(N)=O (centres undefined)
-15.4

Query: inhibition; subject: CCC1(O)C(=O)OCc2c1cc1n(c2=O)Cc2cc3cc(O)ccc3nc2-1 (centres undefined)
7.19

Query: inhibition; subject: CC1OC(n2cc(F)c(=O)[nH]c2=O)C(O)C1O (centres undefined)
-17.5

Query: inhibition; subject: `Cc1ccc(NC(=O)CCCCCC(=O)Nc2ccccc2N)cc1`
-27.1

Query: inhibition; subject: CC1CNC(=O)NC1=O (centres undefined)
-20.8

Query: inhibition; subject: `Cc1c(Br)cc(NCC(=O)N/N=C/c2cc([N+](=O)[O-])ccc2O)cc1Br`
-10.8

Query: inhibition; subject: CC(C)(O)[C@H]1CC[C@@](C)(C2[C@@H](O)C[C@@]3(C)[C@@H]4C[C@H](O)C5C(C)(C)[C@@H](O)CCC56CC46CC[C@]23C)O1 (some centres undefined)
-5.37

Query: inhibition; subject: Cc1cn(C2CC(O)C(COP(=O)(O)OP(=O)(O)OP(=O)(O)O)O2)c(=O)[nH]c1=O (centres undefined)
-3.67

Query: inhibition; subject: `O=C(CCCCCCC(=O)NO)NO`
-20.9

Query: inhibition; subject: `C[C@@H]1COCCN1c1cc(C2(S(C)(=O)=O)CC2)nc(-c2cccc3[nH]ccc23)n1`
-6.75

Query: inhibition; subject: N#Cc1ccc(OC2CCC(NC(=O)CCSc3nc4ccccc4c(=O)[nH]3)CC2)cc1 (centres undefined)
9.73

Where do the numbers come from? From PubChem BioAssay.
